- assay explanation: Caco-2 permeability
- Type: in vitro ADME
- condition info: human; Caco-2, A-B
endpoint label: Papp A→B (×10⁻⁶ cm/s)

smiles data	endpoint label	units	numeric value
CCn1c(=O)c(-c2ccc(-c3nc(C)c[nH]3)cc2Cl)cc2cnc(Nc3ccc(N4CCN(C)CC4)cc3)nc21	Papp A→B	×10⁻⁶ cm/s	3.9

###

- assay explanation: Pharmacokinetic (PK) assessment in rats
- Format: in vivo
- condition info: rat, plasma, PO, 30 mg/kg
endpoint label: Cmax

smiles data	endpoint label	result
CCn1c(=O)c(-c2ccc(-c3nc(C)c[nH]3)cc2Cl)cc2cnc(Nc3ccc(N4CCN(C)CC4)cc3)nc21	Cmax	943 ng/mL

###

- assay explanation: Pharmacokinetic (PK) assessment in rats
- Type: in vivo
- condition info: rat, plasma, IV, 2 mg/kg, mean
endpoint label: clearance (mL/min/kg)

compound	endpoint label	numeric value
CCC1CCCCN1c1cc(C)nc2nc(-c3ccc(C)cc3)nn12 (stereo not drawn) [Compound D245-0091]	clearance	46.8
COc1cccc(-c2oncc2CN2CCN(C(C)=O)CC2)c1 [Compound T813-0242]	clearance	36.7
CSc1ccc(-c2nc3cccc(C)n3c2Nc2ccc3c(c2)OCCO3)cc1 [Compound C273-0489]	clearance	214

###

- assay explanation: Pharmacokinetic (PK) assessment in rats
- Type: in vivo
- condition info: rat, plasma, po, 10 mg/kg, PO, dose 10 mg/kg, summary section, no unit printed there, read-out: AUClast, PO plasma

compound	AUC(0-t) (ng·h/mL)
COc1cccc(-c2oncc2CN2CCN(C(C)=O)CC2)c1 [Compound T813-0242]	171
CCC1CCCCN1c1cc(C)nc2nc(-c3ccc(C)cc3)nn12 (centres unmarked) [Compound D245-0091]	315

###

- assay explanation: Pharmacokinetic (PK) assessment in rats
- Type: in vivo
- condition info: rat, plasma, PO, 10 mg/kg, mean
Quick list: Cmax per entry.

compound	Cmax (ng/mL)
CCC1CCCCN1c1cc(C)nc2nc(-c3ccc(C)cc3)nn12 (stereo not drawn) [Compound D245-0091]	85.7
COc1cccc(-c2oncc2CN2CCN(C(C)=O)CC2)c1 [Compound T813-0242]	202
CSc1ccc(-c2nc3cccc(C)n3c2Nc2ccc3c(c2)OCCO3)cc1 [Compound C273-0489]	17.4

###

- assay explanation: Caco-2 permeability
- Type: in vitro ADME
- condition info: human; Caco-2, B-A

compound	Papp B→A [×10⁻⁶ cm/s]
CCn1c(=O)c(-c2ccc(-c3nc(C)c[nH]3)cc2Cl)cc2cnc(Nc3ccc(N4CCN(C)CC4)cc3)nc21 [Compound 42-0125_1]	3.8

###

- assay explanation: Pharmacokinetic (PK) assessment in rats
- Type: in vivo
- condition info: rat, plasma, po, 10 mg/kg, PO, dose 10 mg/kg, summary section, no unit printed there, read-out: AUCINF, PO plasma
Quick list: AUC(0-inf) per entry.
endpoint label: AUC(0-inf) (ng·h/mL)

compound	units	numeric value
CCC1CCCCN1c1cc(C)nc2nc(-c3ccc(C)cc3)nn12 (centres unmarked) [Compound D245-0091]	ng·h/mL	334
COc1cccc(-c2oncc2CN2CCN(C(C)=O)CC2)c1 [Compound T813-0242]	ng·h/mL	175

###

- assay explanation: Microsomal stability, mouse (MLM)
- Type: in vitro ADME
- condition info: liver microsomes
Quick list: microsomal CLint per entry.

compound	microsomal CLint / µL/min/mg
COc1cccc(-c2oncc2CN2CCN(C(C)=O)CC2)c1	44.4
CCC1CCCCN1c1cc(C)nc2nc(-c3ccc(C)cc3)nn12 (stereo not drawn)	243
CSc1ccc(-c2nc3cccc(C)n3c2Nc2ccc3c(c2)OCCO3)cc1	664

###

- assay explanation: Pharmacokinetic (PK) assessment in rats
- Assay type: in vivo
- condition info: rat, plasma, IV, 2 mg/kg, mean
endpoint label: C0

molecule	result
COc1cccc(-c2oncc2CN2CCN(C(C)=O)CC2)c1	3150 ng/mL
CCC1CCCCN1c1cc(C)nc2nc(-c3ccc(C)cc3)nn12 (stereo not drawn)	1010 ng/mL
CSc1ccc(-c2nc3cccc(C)n3c2Nc2ccc3c(c2)OCCO3)cc1	71.7 ng/mL

###

- assay explanation: Pharmacokinetic (PK) assessment in rats
- Type: in vivo
- condition info: rat, plasma, IV, 3 mg/kg, read-out: MRT MRT last

smiles data	MRT last / h
CCn1c(=O)c(-c2ccc(-c3nc(C)c[nH]3)cc2Cl)cc2cnc(Nc3ccc(N4CCN(C)CC4)cc3)nc21	5

###

- assay explanation: Microsomal stability, rat (RLM)
- Format: in vitro ADME
- condition info: liver microsomes; rat microsomes

molecule	microsomal CLint
COc1cccc(-c2oncc2CN2CCN(C(C)=O)CC2)c1	34 µL/min/mg
CCC1CCCCN1c1cc(C)nc2nc(-c3ccc(C)cc3)nn12 (stereo not drawn)	159 µL/min/mg
CSc1ccc(-c2nc3cccc(C)n3c2Nc2ccc3c(c2)OCCO3)cc1	1830 µL/min/mg

###

- assay explanation: Pharmacokinetic (PK) assessment in rats
- Format: in vivo
- condition info: rat, plasma, IV, 3 mg/kg

smiles data	units	Tmax
CCn1c(=O)c(-c2ccc(-c3nc(C)c[nH]3)cc2Cl)cc2cnc(Nc3ccc(N4CCN(C)CC4)cc3)nc21	min	10.2

###

Quick list: AUC(0-inf) per entry.
- assay explanation: Pharmacokinetic (PK) assessment in rats
- Assay type: in vivo
- condition info: rat, plasma, po, 10 mg/kg, PO, 10 mg/kg, mean, read-out: AUCINF

molecule	units	AUC(0-inf)
COc1cccc(-c2oncc2CN2CCN(C(C)=O)CC2)c1	ng·h/mL	175
CCC1CCCCN1c1cc(C)nc2nc(-c3ccc(C)cc3)nn12 (centres unmarked)	ng·h/mL	334

###

- assay explanation: Pharmacokinetic (PK) assessment in rats
- Type: in vivo
- condition info: rat, plasma, PO, 10 mg/kg, mean
endpoint label: CL/F

compound	result
CCC1CCCCN1c1cc(C)nc2nc(-c3ccc(C)cc3)nn12 (centres unmarked)	525 mL/min/kg
COc1cccc(-c2oncc2CN2CCN(C(C)=O)CC2)c1	974 mL/min/kg

###

- assay explanation: Pharmacokinetic (PK) assessment in rats
- Format: in vivo
- condition info: rat, plasma, iv, 2 mg/kg, IV, dose 2 mg/kg, summary section, no unit printed there, read-out: AUCINF, IV plasma

compound	units	AUC(0-inf)
COc1cccc(-c2oncc2CN2CCN(C(C)=O)CC2)c1	ng·h/mL	911
CCC1CCCCN1c1cc(C)nc2nc(-c3ccc(C)cc3)nn12 (centres unmarked)	ng·h/mL	714

###

- assay explanation: Solubility assessment
- Format: physicochemical
- condition info: aqueous buffer, kinetic from dmso stock; UB pH 7, 1% DMSO; read-out: Solubility in UB pH 7, 1% DMSO

smiles data	units	solubility
CCn1c(=O)c(-c2ccc(-c3nc(C)c[nH]3)cc2Cl)cc2cnc(Nc3ccc(N4CCN(C)CC4)cc3)nc21	µM	25

###

- assay explanation: Microsomal stability, human (HLM)
- Type: in vitro ADME
- condition info: human, human liver microsomes; HLM
endpoint label: microsomal CLint (µL/min/mg)

smiles data	numeric value
CCn1c(=O)c(-c2ccc(-c3nc(C)c[nH]3)cc2Cl)cc2cnc(Nc3ccc(N4CCN(C)CC4)cc3)nc21	12

###

- assay explanation: Pharmacokinetic (PK) assessment in rats
- Type: in vivo
- condition info: rat, plasma, IV, 2 mg/kg, mean

molecule	Cmax (ng/mL)
CSc1ccc(-c2nc3cccc(C)n3c2Nc2ccc3c(c2)OCCO3)cc1	53.4
COc1cccc(-c2oncc2CN2CCN(C(C)=O)CC2)c1	2210
CCC1CCCCN1c1cc(C)nc2nc(-c3ccc(C)cc3)nn12 (stereo not drawn)	740

###

Quick list: MRT inf per entry.
- assay explanation: Pharmacokinetic (PK) assessment in rats
- Format: in vivo
- condition info: rat, plasma, PO, 10 mg/kg, mean

compound	units	MRT inf
COc1cccc(-c2oncc2CN2CCN(C(C)=O)CC2)c1	h	0.84
CCC1CCCCN1c1cc(C)nc2nc(-c3ccc(C)cc3)nn12 (centres unmarked)	h	3.01

###

- assay explanation: Pharmacokinetic (PK) assessment in rats
- Type: in vivo
- condition info: rat, plasma, PO, 30 mg/kg, read-out: MRT MRT last

molecule	MRT last
CCn1c(=O)c(-c2ccc(-c3nc(C)c[nH]3)cc2Cl)cc2cnc(Nc3ccc(N4CCN(C)CC4)cc3)nc21 [Compound 42-0125_1]	10 h

###

- assay explanation: Pharmacokinetic (PK) assessment in rats
- Format: in vivo
- condition info: rat, plasma, iv, 2 mg/kg, IV, dose 2 mg/kg, summary section, no unit printed there, read-out: AUClast, IV plasma
Quick list: AUC(0-t) per entry.

compound	AUC(0-t), µg·h/mL
COc1cccc(-c2oncc2CN2CCN(C(C)=O)CC2)c1	0.909
CCC1CCCCN1c1cc(C)nc2nc(-c3ccc(C)cc3)nn12 (centres unmarked)	0.695
